B1: GLT8D2 (parent)
chain: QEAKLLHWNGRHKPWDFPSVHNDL

variants of: B1; assay: protein stability index of a GFP-peptide fusion (GPS, HEK-293T) (PSI 1-6); higher = more stable; details: c terminus: a fixed tail appended;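 also: lentivirally expressed fusions sorted by FACS into six bins by GFP to DsRed ratio, PSI derived from sequencing read proportions per bin multiplied by bin number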
METRIC: protein stability index
// return a plain number; no unit text

CHAIN_SEQUENCE	protein stability index
QEAKLLHWNGRSKPWDFPSVHNDL [H12S]	2.77
QEAKLLHWNGRHKPWDLPSVHNDL [F17L]	3.05
QEAKLLHWNGRHYPWDFPSVHNDL [K13Y]	2.43
QEAKLLHWNGRHKQWDFPSVHNDL [P14Q]	2.27

Consider the variant QEAKLLHWNGYHKPWDFPSVHNDL [R11Y] and give its measured protein stability index. 2.28
